tested on: galium (catchweed bedstraw, Galium aparine); assay: Test A postemergence, visual injury rating; assay type: in vivo; settings: 125 g ai/ha, 0 is no effect, 100 is complete control
Record form. Attribute: Galium plant response rating (0 to 100 scale). Fill in for each entry.
Lab note: write the figure by itself, no unit.

Query string: // returns reported Galium plant response rating (0 to 100 scale) for input O=C(OCC(Cl)(Cl)Cl)c1c(Br)cccc1Oc1ncc(Cl)cn1 [Compound 45]
Result string: 100

Query string: Record: O=C(OC(CCl)CCl)c1c(Br)cccc1Oc1ncc(Cl)cn1 [Compound 36]
Result string: 0

Query string: Record: O=C(CCCC(F)(F)F)c1c(Br)cccc1Oc1ncc(Cl)cn1 [Compound 77]
Result string: 100

Query string: Record: CCCCC(=O)c1c(Br)cccc1Oc1ncc(Cl)cn1 [Compound 79]
Result string: 90

Query string: Record: N#Cc1cnc(Oc2cccc(Br)c2C(=O)OCC(F)(F)F)nc1 [Compound 31]
Result string: 0

Query string: Record: CCCC(=O)c1c(C#N)cccc1Oc1ncc(Cl)cn1 [Compound 67]
Result string: 0

Query string: Record: CC(CN(C)C(=O)c1c(Br)cccc1Oc1ncc(Cl)cn1)C(F)(F)F (stereo not drawn) [Compound 18]
Result string: 0

Query string: Record: CN(OCC(F)(F)F)C(=O)c1c(Br)cccc1Oc1ncc(Cl)cn1 [Compound 25]
Result string: 20

Query string: Record: N#CCOC(=O)c1c(F)cccc1Oc1ncc(Cl)cn1 [Compound 49]
Result string: 0

Query string: Record: N#Cc1cccc(Oc2ncc(Cl)cn2)c1C(=O)OCCC(F)(F)F [Compound 30]
Result string: 60

Query string: Record: FC(F)(F)C(F)(F)COCc1c(Br)cccc1Oc1ncc(Cl)cn1 [Compound 63]
Result string: 30

Query string: Record: N#CCCOC(=O)c1c(Br)cccc1Oc1ncc(Cl)cn1 [Compound 7]
Result string: 100

Query string: Record: FC(F)(F)CCCOCc1c(Br)cccc1Oc1ncc(Cl)cn1 [Compound 74]
Result string: 80

Query string: Record: O=C(OCC(F)(F)C(F)(F)F)c1c(F)cccc1Oc1ncc(Br)cn1 [Compound 4]
Result string: 0

Query string: Record: FC(F)(F)CCOCc1c(Br)cccc1Oc1ncc(Cl)cn1 [Compound 66]
Result string: 100

Query string: Record: O=C(OCCCl)c1c(Br)cccc1Oc1ncc(Cl)cn1 [Compound 46]
Result string: 70

Query string: Record: COc1cccc(Oc2ncc(Cl)cn2)c1C(C)=O [Compound 51]
Result string: 10

Query string: Record: N#CCOC(=O)c1c(C#N)cccc1Oc1ncc(Cl)cn1 [Compound 39]
Result string: 0
